# measurement target: Carbonic anhydrase 9 (Homo sapiens, UniProt Q16790)
# method description: Inhibition of recombinant human carbonic anhydrase 9 incubated for 10 mins prior to testing measured for 5 to 10 secs by phenol red-based stopped-flow CO2 hydration assay
parameter: log10(Ki) (log10 of the value in nM)
Note: values are log10 of Ki expressed in nM.

>>> readout_value("NS(=O)(=O)c1ccc(-c2nnc(SCC(=O)c3ccc(Br)cc3)o2)cc1")
3.24
>>> readout_value("NS(=O)(=O)c1ccc(-c2nnc(SCC(=O)Nc3ccccc3)o2)cc1")
2.05
>>> readout_value("Cc1ccc(C(=O)CSc2nnc(-c3ccc(S(N)(=O)=O)cc3)o2)cc1")
2.30
>>> readout_value("NS(=O)(=O)c1ccc(-c2nnc(SCC(=O)Nc3ccc(Br)cc3)o2)cc1")
2.83

Now examine the next entry.
### Prompt Report log10(Ki) under test system Carbonic anhydrase 9 (Homo sapiens, UniProt Q16790) for `NS(=O)(=O)c1ccc(-c2nnc(SCC(=O)c3ccccc3)o2)cc1` .
### Response 2.88

---

# measurement target: Carbonic anhydrase 9 (Homo sapiens)
# method description: Inhibition of recombinant human carbonic anhydrase 9 incubated for 10 mins prior to testing measured for 5 to 10 secs by phenol red-based stopped-flow CO2 hydration assay
parameter: pKi
One number for each entry, as −log10 of the molar value.

Consider the worked cases shown below.
>>> readout_value("NS(=O)(=O)c1ccc(-c2nnc(SCC(=O)Nc3ccc(F)cc3)o2)cc1")
6.79
>>> readout_value("NS(=O)(=O)c1ccc(-c2nnc(SCC(=O)Nc3ccc([N+](=O)[O-])cc3)o2)cc1")
6.59

Go through the items and report each one's pKi.
1. NS(=O)(=O)c1ccc(-c2nnc(SCC(=O)c3ccc([N+](=O)[O-])cc3)o2)cc1
2. COc1ccc(C(=O)CSc2nnc(-c3ccc(S(N)(=O)=O)cc3)o2)cc1

### Response
6.20
6.35

### Prompt Look up and report measured pKi for this entry: `NS(=O)(=O)c1ccc(-c2nnc(SCC(=O)c3cccc(Cl)c3)o2)cc1`
### Response 5.90

---

# measurement target: Carbonic anhydrase 2 (Homo sapiens, UniProt P00918)
# method description: Inhibition of recombinant human carbonic anhydrase 2 incubated for 10 mins prior to testing measured for 5 to 10 secs by phenol red-based stopped-flow CO2 hydration assay
Mark each entry Met if its Ki sits below 80 nM, and Not met for all others.

Record excerpt, results attached:
>>> group_label("NS(=O)(=O)c1ccc(-c2nnc(SCC(=O)c3ccc(F)cc3)o2)cc1")
"Met"
>>> group_label("NS(=O)(=O)c1ccc(-c2nnc(SCC(=O)c3ccc(Br)cc3)o2)cc1")
"Met"
>>> group_label("COc1ccc(C(=O)CSc2nnc(-c3ccc(S(N)(=O)=O)cc3)o2)cc1")
"Not met"
>>> group_label("Cc1ccc(C(=O)CSc2nnc(-c3ccc(S(N)(=O)=O)cc3)o2)cc1")
"Not met"
>>> group_label("NS(=O)(=O)c1ccc(-c2nnc(SCC(=O)Nc3ccc(Cl)cc3)o2)cc1")
"Not met"
>>> group_label("NS(=O)(=O)c1ccc(-c2nnc(SCC(=O)c3ccc(Cl)cc3)o2)cc1")
"Met"
>>> group_label("COc1cccc(NC(=O)CSc2nnc(-c3ccc(S(N)(=O)=O)cc3)o2)c1")
"Met"
>>> group_label("NS(=O)(=O)c1ccc(-c2nnc(SCC(=O)Nc3ccccc3)o2)cc1")
"Met"
>>> group_label("NS(=O)(=O)c1ccc(-c2nnc(SCC(=O)Nc3ccc(F)cc3)o2)cc1")
"Not met"

Now consider a different compound.
### Prompt Please check: Ki for `NS(=O)(=O)c1ccc(-c2nnc(SCC(=O)Nc3ccc([N+](=O)[O-])cc3)o2)cc1` , strictly under 80 nM or not?
### Response Met

---

Assignment: determine reported pKi for the given compounds.
# measurement target: Carbonic anhydrase 1 (Homo sapiens, UniProt P00915)
# Sequence (P00915 whole entry): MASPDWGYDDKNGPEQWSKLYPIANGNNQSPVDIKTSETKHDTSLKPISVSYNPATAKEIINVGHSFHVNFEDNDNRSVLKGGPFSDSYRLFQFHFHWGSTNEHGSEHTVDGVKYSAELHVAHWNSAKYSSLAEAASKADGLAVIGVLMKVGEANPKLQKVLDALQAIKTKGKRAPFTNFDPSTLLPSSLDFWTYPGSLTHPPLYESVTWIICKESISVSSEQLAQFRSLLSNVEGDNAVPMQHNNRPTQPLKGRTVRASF
# method description: Inhibition of recombinant human carbonic anhydrase 1 incubated for 10 mins prior to testing measured for 5 to 10 secs by phenol red-based stopped-flow CO2 hydration assay
Numbers only, as −log10 of the molar value.

Consider the worked cases shown below.
>>> readout_value("NS(=O)(=O)c1ccc(-c2nnc(SCC(=O)Nc3ccccc3)o2)cc1")
6.27
>>> readout_value("COc1ccc(NC(=O)CSc2nnc(-c3ccc(S(N)(=O)=O)cc3)o2)cc1")
5.53
>>> readout_value("NS(=O)(=O)c1ccc(-c2nnc(SCC(=O)c3ccc([N+](=O)[O-])cc3)o2)cc1")
7.15
>>> readout_value("Cc1ccc(NC(=O)CSc2nnc(-c3ccc(S(N)(=O)=O)cc3)o2)cc1")
6.13
>>> readout_value("NS(=O)(=O)c1ccc(-c2nnc(SCC(=O)Nc3cccc([N+](=O)[O-])c3)o2)cc1")
7.14
>>> readout_value("NS(=O)(=O)c1ccc(-c2nnc(SCC(=O)Nc3ccc(Br)cc3)o2)cc1")
5.41

### Prompt Look up and report measured pKi for this entry: `NS(=O)(=O)c1ccc(-c2nnc(SCC(=O)Nc3ccc(F)cc3)o2)cc1`
### Response 6.15

---

# measurement target: Carbonic anhydrase 2 (Homo sapiens)
# method description: Inhibition of recombinant human carbonic anhydrase 2 incubated for 10 mins prior to testing measured for 5 to 10 secs by phenol red-based stopped-flow CO2 hydration assay
parameter: pKi
Numbers only, as −log10 of the molar value.

>>> readout_value("Cc1ccc(NC(=O)CSc2nnc(-c3ccc(S(N)(=O)=O)cc3)o2)cc1")
7.10
>>> readout_value("NS(=O)(=O)c1ccc(-c2nnc(SCC(=O)Nc3cccc(Cl)c3)o2)cc1")
7.09

Now examine the next entry.
### Prompt Look up and report measured pKi for this entry: `COc1cccc(C(=O)CSc2nnc(-c3ccc(S(N)(=O)=O)cc3)o2)c1`
### Response 7.10
